# Lookup of reported melting point keyed by entry

Look over these answered cases.
N#Cc1cccc(-c2ccc3c(c2)C2(CCCCC2)C(=NO)N3)c1 [Example 51] ... 198 to 200 °C
N#Cc1cccc(-c2ccc3c(c2)C2(CCCCC2)C(=S)N3)c1 [Example 2] ... > 231 °C (dec.)
CC1(C)C(=S)Nc2ccc(-c3coc(C#N)c3)cc21 [Example 18] ... 188 to 191 °C
ON=C1Nc2ccc(-c3ccc(F)cc3)cc2C12CCCCC2 [Example 47] ... 205 to 208 °C

Below: the item to evaluate.
In plain terms, COc1cccc(-c2ccc3c(c2)C2(CCCCC2)C(=NO)N3)c1 [Example 49] has a documented melting point of 101 to 104 °C
